These data points were gathered from patent US11884661B2.

Molecular target: human αVβ8 (Homo sapiens, UniProt P06756+P26012)
Sequence (P06756 31-992 limits assumed): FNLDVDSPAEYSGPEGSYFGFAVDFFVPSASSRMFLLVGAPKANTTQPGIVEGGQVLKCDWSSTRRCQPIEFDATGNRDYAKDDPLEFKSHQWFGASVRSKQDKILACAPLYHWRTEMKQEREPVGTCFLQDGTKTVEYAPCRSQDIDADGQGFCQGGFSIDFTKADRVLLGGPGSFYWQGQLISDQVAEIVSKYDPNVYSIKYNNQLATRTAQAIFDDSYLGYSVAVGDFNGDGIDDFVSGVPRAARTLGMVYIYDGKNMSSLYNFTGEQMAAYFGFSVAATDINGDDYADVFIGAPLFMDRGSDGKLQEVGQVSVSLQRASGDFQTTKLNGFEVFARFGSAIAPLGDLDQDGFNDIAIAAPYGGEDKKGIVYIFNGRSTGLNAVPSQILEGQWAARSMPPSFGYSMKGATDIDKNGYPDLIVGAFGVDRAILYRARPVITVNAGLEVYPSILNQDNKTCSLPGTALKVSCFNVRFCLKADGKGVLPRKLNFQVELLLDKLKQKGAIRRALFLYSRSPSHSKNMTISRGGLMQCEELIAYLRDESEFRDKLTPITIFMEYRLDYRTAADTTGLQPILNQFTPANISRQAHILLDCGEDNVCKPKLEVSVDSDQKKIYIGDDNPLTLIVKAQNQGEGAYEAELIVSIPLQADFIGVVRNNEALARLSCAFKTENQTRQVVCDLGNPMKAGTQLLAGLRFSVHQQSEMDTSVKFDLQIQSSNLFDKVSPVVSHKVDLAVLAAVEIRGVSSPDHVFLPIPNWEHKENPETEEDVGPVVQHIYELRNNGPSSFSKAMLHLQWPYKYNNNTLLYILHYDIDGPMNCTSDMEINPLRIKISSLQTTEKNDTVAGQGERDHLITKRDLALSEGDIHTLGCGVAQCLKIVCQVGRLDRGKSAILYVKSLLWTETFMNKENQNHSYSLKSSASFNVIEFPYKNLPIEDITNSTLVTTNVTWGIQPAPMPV
Sequence (P26012 43-684 limits assumed): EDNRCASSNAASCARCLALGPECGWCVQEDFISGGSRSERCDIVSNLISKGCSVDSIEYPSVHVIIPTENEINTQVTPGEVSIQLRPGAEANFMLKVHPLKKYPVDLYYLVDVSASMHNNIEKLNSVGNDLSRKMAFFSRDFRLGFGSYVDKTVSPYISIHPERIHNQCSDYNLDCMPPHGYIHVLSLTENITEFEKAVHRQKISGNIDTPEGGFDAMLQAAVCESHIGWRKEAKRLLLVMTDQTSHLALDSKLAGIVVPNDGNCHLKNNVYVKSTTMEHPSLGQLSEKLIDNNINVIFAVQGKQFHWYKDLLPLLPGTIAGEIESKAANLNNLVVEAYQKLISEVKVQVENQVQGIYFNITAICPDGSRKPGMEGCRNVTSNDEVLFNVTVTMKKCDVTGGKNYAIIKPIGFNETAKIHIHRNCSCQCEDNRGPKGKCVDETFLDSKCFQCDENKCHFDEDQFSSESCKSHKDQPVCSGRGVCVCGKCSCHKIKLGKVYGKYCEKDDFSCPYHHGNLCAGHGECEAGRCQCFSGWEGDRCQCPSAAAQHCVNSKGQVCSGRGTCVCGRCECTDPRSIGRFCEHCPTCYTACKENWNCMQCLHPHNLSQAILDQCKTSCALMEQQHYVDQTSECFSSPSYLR
Experiment: human αVβ8 HTRF binding assay
Description: All binding assays used the HTRF (homogeneous time resolved fluorescence) technology from Cisbio International, therefore all assays are described as HTRF binding assays. The assay results for the Examples are listed above together with the characterization data. The HTRF binding assays are established for the following integrins: human αVβ6, human αVβ1, human αVβ3, human αVβ5, and human αVβ8. […]
endpoint: log10 IC50 (log10 of the value in nM)
Could you please treat all values as log10 of IC50 in nM?

A selection of reference data follows.
• COc1ccc(C(CC(=O)O)c2ncc(CCCCc3ccc4c(n3)NCCC4)s2)cc1F (single isomer, unassigned) = 3.41
• Cc1cc(C)n(-c2cccc(C(CC(=O)O)n3ccc(CCCc4ccc5c(n4)NCCC5)n3)c2)n1 (racemic) = 3.52
• COc1ccc(C(CC(=O)O)n2ccc(-c3cccc(-c4ccc5c(n4)NCCC5)c3)n2)cn1 (racemic) = 3.91

Task: Would you kindly share the measured log10 IC50 for COc1cncc(C(CC(=O)O)n2nccc2CCCc2ccc3c(n2)NCCC3)c1 (single isomer, unassigned) ?
Output: 2.89

Task: Would you kindly share the measured log10 IC50 for O=C(O)CC(c1cnc2ccccc2c1)n1ccc(CCCc2ccc3c(n2)NCCC3)n1 (racemic) ?
Output: 3.46

Task: Would you kindly share the measured log10 IC50 for COc1ccc(C(CC(=O)O)n2ccc(CCCCc3ccc4c(n3)NCCC4)n2)cn1 (racemic) ?
Output: 2.42

Task: Would you kindly share the measured log10 IC50 for COc1ccc(C(CC(=O)O)n2ccc(CCCc3ccc4c(n3)NCCC4)n2)cn1 (single isomer, unassigned) [Example 3] ?
Output: 3.05
